Target: recombinant human GVIA iPLA2 (Homo sapiens, UniProt O60733)
Sequence (O60733 whole entry): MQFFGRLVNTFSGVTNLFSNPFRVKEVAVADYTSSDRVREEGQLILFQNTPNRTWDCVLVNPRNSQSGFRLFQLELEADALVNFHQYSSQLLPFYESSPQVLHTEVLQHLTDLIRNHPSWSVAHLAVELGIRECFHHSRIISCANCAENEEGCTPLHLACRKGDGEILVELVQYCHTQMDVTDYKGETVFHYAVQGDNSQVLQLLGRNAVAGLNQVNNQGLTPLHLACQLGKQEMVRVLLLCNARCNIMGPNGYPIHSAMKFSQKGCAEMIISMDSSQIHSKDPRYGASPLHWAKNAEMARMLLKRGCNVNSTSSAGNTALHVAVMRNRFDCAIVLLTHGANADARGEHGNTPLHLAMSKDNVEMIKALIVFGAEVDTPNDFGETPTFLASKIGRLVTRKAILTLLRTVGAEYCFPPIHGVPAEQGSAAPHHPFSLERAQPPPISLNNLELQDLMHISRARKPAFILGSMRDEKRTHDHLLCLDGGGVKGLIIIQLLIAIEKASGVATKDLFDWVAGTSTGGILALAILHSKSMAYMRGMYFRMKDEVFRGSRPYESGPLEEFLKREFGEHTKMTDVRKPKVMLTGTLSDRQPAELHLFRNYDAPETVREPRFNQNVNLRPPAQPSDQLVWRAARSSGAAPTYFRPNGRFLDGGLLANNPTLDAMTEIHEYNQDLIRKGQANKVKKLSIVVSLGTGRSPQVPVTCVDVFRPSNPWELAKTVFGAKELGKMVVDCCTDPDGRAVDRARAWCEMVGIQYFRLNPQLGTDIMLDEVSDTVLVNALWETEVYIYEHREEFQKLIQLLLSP
Assay: lipidomics-based mixed micelle assay, GVIA iPLA2
readout label: IC50 (nM)

Consider the worked cases shown below.
CCC[C@H]1OC(=O)[C@@H]1CCCc1ccc(OC)cc1 (racemic) [trans-9f] :: 95
CCC[C@@H]1OC(=O)[C@@H]1CCCc1ccc(OC)cc1 (racemic) [cis-9f] :: 20000
CCC[C@@H]1OC(=O)[C@@H]1CCCCc1ccc2ccccc2c1 (racemic) [cis-9j] :: 1000

P. CCC[C@H]1OC(=O)[C@@H]1CCCc1ccccc1 (racemic) [trans-9d]
Q. CCC[C@H]1OC(=O)[C@@H]1CCCc1ccc2ccccc2c1 (racemic) [trans-9e]
[Q] Of P and Q , whose reported IC50 is numerically smaller? # respond with the chosen item's label
[A] P
(P: 95 nM, Q: 150 nM)
